Test system: Human primary T cells
Protocol Description: IL-2 ELISA, Human Primary T Cell, Anti-CD3+CD28+ (Example 3)
Type: cell-based
Recorded Conditions: Homo sapiens, T-cell, 24 h, anti-CD3+CD28 stimulation
Below, each of the compounds is paired with its reported IC50 value.

Some solved entries appear below for comparison.
CN1C(C)(C)CC(Nc2nc(Nc3ccc(N4CCOCC4)c(C(F)(F)F)c3)ncc2F)CC1(C)C [Compound I-224] | 0.112 µM
COc1cc(Nc2ncc(F)c(N(Cc3ccc4ccccc4c3)C3CC(C)(C)N(C)C(C)(C)C3)n2)cc(OC)c1 [Compound I-314] | 2.57 µM

[in] Given Cc1cc(N2CCN(C)CC2)ncc1Nc1ncc(F)c(NC2CC(C)(C)N(C)C(C)(C)C2)n1 [Compound I-8] , state its recorded IC50.
[out] 5.81 µM

[in] Given COc1cc(Nc2ncc(C#N)c(NC3CC(C)(C)N(C)C(C)(C)C3)n2)cc(-n2nnnc2C)c1 [Compound I-365] , state its recorded IC50.
[out] 0.0566 µM

[in] Given Cc1cnc(Nc2ccc3c(c2)OCCO3)nc1NC1CC(C)(C)N(C)C(C)(C)C1 [II-146] , state its recorded IC50.
[out] 3.13 µM

[in] Given Cc1ccc(Nc2ncc(F)c(NC3CC(C)(C)N(C)C(C)(C)C3)n2)cc1Cl [Compound I-332] , state its recorded IC50.
[out] 0.299 µM

[in] Given CCN(CC)C1CCC(Nc2nc(Nc3ccc(N4CCN(C)CC4)c(Cl)c3)ncc2F)CC1 (stereo not shown) [IV-8] , state its recorded IC50.
[out] 4.41 µM

[in] Given COc1ccc(Nc2ncc(F)c(NC3CC(C)(C)N(C)C(C)(C)C3)n2)cc1-n1c(C)ccc1C [Compound I-348] , state its recorded IC50.
[out] 0.172 µM

[in] Given CN1C(C)(C)CC(Nc2nc(Nc3cnc4c(c3)OC(F)(F)C(=O)N4)ncc2F)CC1(C)C [II-25] , state its recorded IC50.
[out] 2.07 µM

[in] Given COc1cc(Nc2ncc(C(F)(F)F)c(NC3CC(C)(C)N(C)C(C)(C)C3)n2)cc(-n2cnnn2)c1 [Compound I-356] , state its recorded IC50.
[out] 0.096 µM

[in] Given CN1C(=O)C(C)(C)Oc2cc(Nc3ncc(F)c(NC4CC(C)(C)N(C)C(C)(C)C4)n3)cnc21 [II-54] , state its recorded IC50.
[out] 0.373 µM

[in] Given CCN1C(=O)C(F)(F)Oc2cc(Nc3ncc(F)c(NC4CC(C)(C)N(C)C(C)(C)C4)n3)ccc21 [II-31] , state its recorded IC50.
[out] 0.0264 µM

[in] Given CN1C(C)(C)CC(Nc2nc(Nc3ccc(Cl)c(C#N)c3)ncc2F)CC1(C)C [Compound I-163] , state its recorded IC50.
[out] 0.29 µM
